target-under-test: SARM1 SAM-TIR (Homo sapiens)
Construct: a fragment of the SARM1 molecule encompassing the SAM and TIR domains; made in house; host or cells: NRK1-HEK293T cells, transiently transfected; the cleared, unpurified lysate was used as the enzyme
Sequence (Q6SZW1 409-724 limits assumed): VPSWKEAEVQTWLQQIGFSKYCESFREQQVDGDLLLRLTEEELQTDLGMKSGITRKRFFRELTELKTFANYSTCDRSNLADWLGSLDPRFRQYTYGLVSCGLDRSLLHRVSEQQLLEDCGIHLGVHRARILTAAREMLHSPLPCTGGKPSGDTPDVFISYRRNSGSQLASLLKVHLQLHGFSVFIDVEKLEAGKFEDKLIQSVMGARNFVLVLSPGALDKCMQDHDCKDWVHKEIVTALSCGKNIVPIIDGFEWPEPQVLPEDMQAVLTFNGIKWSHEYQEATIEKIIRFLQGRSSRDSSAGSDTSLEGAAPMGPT
experiment: biochemical
assay-setup: SAM-TIR lysate 5 μg/mL, 2 h pre-incubation, 5 μM NAD+, RapidFire MS of NAD+ and ADPR; read-out: SARM1 IC50
Some compounds, each annotated with its measured IC50.

As a guide, the following entries are already answered.
INSERT INTO measurements (query_smiles, target_under_test, value_reported) VALUES
  ('N#Cc1c(Nc2ccccc2C(F)(F)F)sn(CCCCCNC(=O)CCCC[C@@H]2SC[C@@H]3NC(=O)N[C@@H]32)c1=O', 'SARM1 SAM-TIR (Homo sapiens)', '< 1000 nM'),
  ('N#Cc1c(O)nsc1Nc1ccccc1Cl', 'SARM1 SAM-TIR (Homo sapiens)', '< 1000 nM'),
  ('N#Cc1c(O)nsc1Nc1cccnc1', 'SARM1 SAM-TIR (Homo sapiens)', '> 5000 nM'),
  ('Cn1sc(Nc2c(Cl)ccc3c2CCN3)c(C#N)c1=O', 'SARM1 SAM-TIR (Homo sapiens)', '< 1000 nM');

Send back SARM1 SAM-TIR (Homo sapiens) IC50 of `N#Cc1c(O)nsc1Nc1cccc(C(F)(F)F)c1` only.
1000 to 5000 nM

Send back SARM1 SAM-TIR (Homo sapiens) IC50 of `COCCN(C)C(=N)c1c(Nc2ccccc2C(F)(F)F)s[nH]c1=O` only.
1000 to 5000 nM

Send back SARM1 SAM-TIR (Homo sapiens) IC50 of `C[C@@H](CO)n1sc(Nc2ccccc2C(F)(F)F)c(C#N)c1=O` only.
< 1000 nM

====

target-under-test: SARM1 SAM-TIR (Homo sapiens);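 also: inhibition of SARM1 SAM-TIR NADase activity, i.e. NAD+ cleavage, using lysate of NRK1-HEK293T cells overexpressing the SAM-TIR fragment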
Construct: a fragment of the SARM1 molecule encompassing the SAM and TIR domains; made in house; host or cells: NRK1-HEK293T cells, transiently transfected; the cleared, unpurified lysate was used as the enzyme
experiment: biochemical
assay-setup: SAM-TIR lysate 5 μg/mL, 2 h pre-incubation, 5 μM NAD+, RapidFire MS of NAD+ and ADPR; read-out: SARM1 IC50
pIC50: −log10 of the molar value.
quantity-measured: pIC50

INSERT INTO results (query_smiles, value_reported) VALUES
  ('C[C@H](CO)n1sc(Nc2ccccc2C(F)(F)F)c(C#N)c1=O', '> 6.00'),
  ('N#Cc1c(Nc2cccc(C(=O)O)c2C(F)(F)F)s[nH]c1=O', '< 5.30'),
  ('COc1cccc(C#N)c1Nc1sn(CC(C)(C)O)c(=O)c1C(=O)N1CCOCC1', '< 5.30'),
  ('COc1ccccc1Nc1snc(O)c1C#N', '5.30 to 6.00'),
  ('C[C@@H](c1ccccc1)n1sc(Nc2ccccc2C(F)(F)F)c(C#N)c1=O', '> 6.00'),
  ('N#Cc1c(Nc2c(Cl)cccc2Cl)sn(CCO)c1=O', '> 6.00'),
  ('N#Cc1c(Nc2c(Cl)ccc3ncccc23)s[nH]c1=O', '5.30 to 6.00'),
  ('N#Cc1c(O)nsc1Nc1ccccc1C(F)(F)F', '> 6.00'),
  ('COCCn1sc(Nc2ccccc2C(F)(F)F)c(-c2ncon2)c1=O', '< 5.30'),
  ('COc1cccc(OC)c1Nc1s[nH]c(=O)c1C#N', '5.30 to 6.00');

# ---- query compound ----
Send back SARM1 SAM-TIR (Homo sapiens) pIC50 of `Cc1cc(C)n2c1C=C1C=CC(CCC(=O)NCCOCCOCCn3sc(Nc4ccccc4C(F)(F)F)c(C#N)c3=O)=[N+]1[B-]2(F)F` only.
> 6.00
